molecules and their reported EC50
System: SARS-CoV-2 (USA-WA1/2020)
Experiment: microbe, parasite or virus in culture
Assay type: cell-based
Settings: Severe acute respiratory syndrome coronavirus 2, Vero C1008; Table 7; SARS-CoV-2 strain, VeroE6; read-out: EC50
Reported Metric: EC50 (nM)

1) Nc1nc(N)c2c(ccc3c2ccn3CC2CCCCC2)n1 [Compound 12]    120
2) Nc1nc(N)c2c(ccc3c2ccn3Cc2ccncc2)n1 [Compound 10]    80
3) Nc1nc(N)c2c(ccc3c2ccn3Cc2ccccn2)n1 [Compound 11]    120
4) Nc1nc(N)c2c(ccc3c2ccn3Cc2ccccc2F)n1 [Compound 8]    50
5) Nc1nc(N)c2c(ccc3c2ccn3Cc2cccnc2)n1 [Compound 9]    160

* * *

System: SARS-CoV-2 (USA-WA1/2020)
Experiment: microbe, parasite or virus in culture
Format: cell-based
Conditions: Severe acute respiratory syndrome coronavirus 2, Vero C1008; footnote of PK table; read-out: EC90
compounds and their reported EC90
Reported Metric: EC90 (µg/mL)

1. Nc1nc(N)c2c(ccc3c2ccn3Cc2ccncc2)n1 [Compound 10]    0.221
2. Nc1nc(N)c2c(ccc3c2ccn3Cc2ccccn2)n1 [Compound 11]    0.142
3. Nc1nc(N)c2c(ccc3c2ccn3CC2CCCCC2)n1 [Compound 12]    0.0325
4. Nc1nc(N)c2c(ccc3c2ccn3Cc2ccccc2F)n1 [Compound 8]    0.0799
5. Nc1nc(N)c2c(ccc3c2ccn3Cc2cccnc2)n1 [Compound 9]    0.142

* * *

molecules and their reported half-life
Test: PK studies in mice, subcutaneous twice-a-day dosing, plasma and lung
Format: in vivo
Settings: mouse, sc, lung, 10 mg/kg subcutaneous twice-a-day
Reported Metric: half-life (h)

1. Nc1nc(N)c2c(ccc3c2ccn3Cc2ccccc2F)n1    3.74
2. Nc1nc(N)c2c(ccc3c2ccn3CC2CCCCC2)n1    3.1

* * *

Experiment: PK studies in mice, subcutaneous twice-a-day dosing, plasma and lung
Assay type: in vivo
Details: mouse, sc, lung, 25 mg/kg subcutaneous twice-a-day
compounds and their reported half-life
Reported Metric: half-life (h)

1. Nc1nc(N)c2c(ccc3c2ccn3Cc2cccnc2)n1    2.8
2. Nc1nc(N)c2c(ccc3c2ccn3Cc2ccccn2)n1    3.3
3. Nc1nc(N)c2c(ccc3c2ccn3Cc2ccncc2)n1    2.7

* * *

Assay: PK studies in mice, subcutaneous twice-a-day dosing, plasma and lung
Assay type: in vivo
Settings: mouse, sc, plasma, 10 mg/kg subcutaneous twice-a-day
compounds and their reported AUC
Reported Metric: AUC (ng·h/mL)

1. Nc1nc(N)c2c(ccc3c2ccn3CC2CCCCC2)n1 [Compound 12]    968
2. Nc1nc(N)c2c(ccc3c2ccn3Cc2ccccc2F)n1 [Compound 8]    2140

* * *

Experiment: in vitro
Details: African green monkey
compounds and their reported CC50
Reported Metric: CC50

1) C=CCn1ccc2c3c(N)nc(N)nc3ccc21    > 30 µM
2) Nc1nc(N)c2c(ccc3c2ccn3Cc2ccncc2)n1    > 30 µM
3) Nc1nc(N)c2c(ccc3c2ccn3Cc2cccnc2)n1    > 30 µM

Sourced from patent US11963959B2
